// data source = patent US12138267B2

Experiment: Pharmacokinetics of Compound A, plasma concentrations after IV infusion
Type: in vivo, human
Details: both sexes, human, plasma, intravenous, high dose; read-out: tmax (mean peak concentrations)
Assay metric: Tmax (h)

1. CCCNc1nc(NCCC)nc(N(C)OC)n1 [Compound A] : 3.96
